Reported inhibition at 0.3 µM values are given for each entry in this list.
Target: CRF1 (Homo sapiens)
Construct: endogenously expresses functional CRF1; endogenous in cells; host or cells: Y-79 human retinoblastoma cells
Sequence (P34998 24-415): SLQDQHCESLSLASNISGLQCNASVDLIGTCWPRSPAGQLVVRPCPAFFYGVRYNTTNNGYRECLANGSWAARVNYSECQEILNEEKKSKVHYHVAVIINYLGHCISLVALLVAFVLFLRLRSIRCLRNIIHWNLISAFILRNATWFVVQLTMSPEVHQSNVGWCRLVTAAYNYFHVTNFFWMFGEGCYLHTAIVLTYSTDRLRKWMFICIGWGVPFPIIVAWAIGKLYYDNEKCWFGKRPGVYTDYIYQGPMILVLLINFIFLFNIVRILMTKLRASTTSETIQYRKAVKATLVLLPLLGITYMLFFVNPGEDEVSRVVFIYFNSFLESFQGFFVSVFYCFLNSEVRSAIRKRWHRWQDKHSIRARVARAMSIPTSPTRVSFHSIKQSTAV
Assay: CRF1 assessment of cAMP (HTRF cAMP assay) in Y-79 cells, antagonist mode
Type: cell-based
Conditions: Y79 cells, 300 nM pepducin against agonist dose response; read-out: % Inhibition (± SD)
Where a SMILES comes first, the peptide text is derived from it. The star is where a group is joined. Palmitoyl = CCCCCCCCCCCCCCCC(=O)*
Value expressed in %; do not type the unit.

{"molecule": "CCCCCCCCCCCCCCCC(=O)N[C@H](C(=O)N[C@@H](CC(=O)O)C(=O)N[C@@H](CCCNC(=N)N)C(=O)N[C@@H](CC(C)C)C(=O)N[C@@H](CCCNC(=N)N)C(=O)N[C@@H](CCCCN)C(=O)N[C@@H](Cc1c[nH]c2ccccc12)C(=O)N[C@@H](CCSC)C(=O)N[C@@H](Cc1ccccc1)C(=O)N[C@H](C(N)=O)[C@@H](C)CC)[C@@H](C)O [Compound 32, Pal-TDRLRKWMFI-amide] (Palmitoyl-TDRLRKWMFI-NH2)", "tgt": "CRF1 (Homo sapiens)", "unit-of-measurement": "%", "inhibition at 0.3 µM": 53}

The record that follows has no inhibition at 0.3 µM shown yet.
Exam item: Which inhibition at 0.3 µM is reported for this molecule? CCCCCCCCCCCCCCCC(=O)NCC(=O)N[C@@H](CO)C(=O)N[C@H](C(=O)N[C@@H](CCCNC(=N)N)C(=O)N[C@@H](C)C(=O)N[C@@H](CCCNC(=N)N)C(=O)N[C@H](C(=O)N[C@@H](C)C(=O)N[C@@H](CCCNC(=N)N)C(=O)N[C@@H](C)C(=O)N[C@@H](CCSC)C(N)=O)C(C)C)[C@@H](C)CC [Compound 64] (Palmitoyl-GSIRARVARAM-NH2)
Marked response: 55
